FYI, the data here is from PubChem BioAssay AID1963422.

Tested on: 463943-066-T-J2-PDC complex spheroid growth;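 also: compound exposure lasted 7 days; 100% = DMSO vehicle control wells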
TEST DESCRIPTION: Anticancer human tumor 463943-066-T-J2-PDC patient-derived colon adenocarcinoma cell line growth inhibition [Asc]
CONDITION PARAMETERS: second compound 0.0316 µM; first compound 0.0316 µM; active compounds read low
From the text: Multicellular complex tumor spheroid response to apoptosis pathway targeting inhibitors Alrizomadlin, Pelcitoclax, and Dasminapant in combination with a variety of drugs and investigational agents in selected tumor cell lines […] Compounds. […] If the clinical Cmax for an agent had not been determined, the highest concentration tested was 10 microM. […]
Measured viability, T/C by item
Give the value in % but do not write % after it.

O=C(c1ccc(F)c(F)c1Nc1ccc(I)cc1F)N1CC(O)([C@@H]2CCCCN2)C1 + CNC(C)C(=O)NC1CN(S(=O)(=O)c2cccc(S(=O)(=O)N3CCC4CCC(C(=O)NC(c5ccccc5)c5ccccc5)N4C(=O)C(NC(=O)C(C)NC)C3)c2)CCC2CCC(C(=O)NC(c3ccccc3)c3ccccc3)N2C1=O : 69
Cn1ncnc1[C@H]1c2n[nH]c(=O)c3cc(F)cc(c23)N[C@@H]1c1ccc(F)cc1 + CNC(C)C(=O)NC1CN(S(=O)(=O)c2cccc(S(=O)(=O)N3CCC4CCC(C(=O)NC(c5ccccc5)c5ccccc5)N4C(=O)C(NC(=O)C(C)NC)C3)c2)CCC2CCC(C(=O)NC(c3ccccc3)c3ccccc3)N2C1=O : 103
C#Cc1c(F)ccc2cc(O)cc(-c3ncc4c(N5CC6CCC(C5)N6)nc(OCC56CCCN5CC(F)C6)nc4c3F)c12 (stereo unspecified) + Cc1c(S(C)(=O)=O)c(-c2cc(F)cc(N3CCN(c4ccc(NS(=O)(=O)c5ccc(NC(CCN6CCC(C(=O)OCCCP(=O)(O)O)CC6)CSc6ccccc6)c(S(=O)(=O)C(F)(F)F)c5)cc4)CC3)c2)c(-c2ccc(Cl)cc2)n1C(C)C : 96.3
Cn1ncnc1[C@H]1c2n[nH]c(=O)c3cc(F)cc(c23)N[C@@H]1c1ccc(F)cc1 + Cc1c(S(C)(=O)=O)c(-c2cc(F)cc(N3CCN(c4ccc(NS(=O)(=O)c5ccc(NC(CCN6CCC(C(=O)OCCCP(=O)(O)O)CC6)CSc6ccccc6)c(S(=O)(=O)C(F)(F)F)c5)cc4)CC3)c2)c(-c2ccc(Cl)cc2)n1C(C)C : 92.2
CCN1CCN(Cc2ccc(Nc3ncc(F)c(-c4cc(F)c5nc(C)n(C(C)C)c5c4)n3)nc2)CC1 + Cc1c(S(C)(=O)=O)c(-c2cc(F)cc(N3CCN(c4ccc(NS(=O)(=O)c5ccc(NC(CCN6CCC(C(=O)OCCCP(=O)(O)O)CC6)CSc6ccccc6)c(S(=O)(=O)C(F)(F)F)c5)cc4)CC3)c2)c(-c2ccc(Cl)cc2)n1C(C)C : 87.9

For CNC(C)C(=O)NC1CN(S(=O)(=O)c2cccc(S(=O)(=O)N3CCC4CCC(C(=O)NC(c5ccccc5)c5ccccc5)N4C(=O)C(NC(=O)C(C)NC)C3)c2)CCC2CCC(C(=O)NC(c3ccccc3)c3ccccc3)N2C1=O (stereo unspecified) + Cc1c(S(C)(=O)=O)c(-c2cc(F)cc(N3CCN(c4ccc(NS(=O)(=O)c5ccc(NC(CCN6CCC(C(=O)OCCCP(=O)(O)O)CC6)CSc6ccccc6)c(S(=O)(=O)C(F)(F)F)c5)cc4)CC3)c2)c(-c2ccc(Cl)cc2)n1C(C)C , what is its reported viability, T/C? 97.2

For O=C(c1ccc(F)c(F)c1Nc1ccc(I)cc1F)N1CC(O)([C@@H]2CCCCN2)C1 + Cc1c(S(C)(=O)=O)c(-c2cc(F)cc(N3CCN(c4ccc(NS(=O)(=O)c5ccc(NC(CCN6CCC(C(=O)OCCCP(=O)(O)O)CC6)CSc6ccccc6)c(S(=O)(=O)C(F)(F)F)c5)cc4)CC3)c2)c(-c2ccc(Cl)cc2)n1C(C)C , what is its reported viability, T/C? 61.6

For COc1c(OCCCN2CCOCC2)ccc2c3n(c(=NC(=O)c4cnc(N)nc4)nc12)CCN3 + Cc1c(S(C)(=O)=O)c(-c2cc(F)cc(N3CCN(c4ccc(NS(=O)(=O)c5ccc(NC(CCN6CCC(C(=O)OCCCP(=O)(O)O)CC6)CSc6ccccc6)c(S(=O)(=O)C(F)(F)F)c5)cc4)CC3)c2)c(-c2ccc(Cl)cc2)n1C(C)C , what is its reported viability, T/C? 83.6

For O=C(c1cc(Cc2n[nH]c(=O)c3ccccc23)ccc1F)N1CCN(C(=O)C2CC2)CC1 + Cc1c(S(C)(=O)=O)c(-c2cc(F)cc(N3CCN(c4ccc(NS(=O)(=O)c5ccc(NC(CCN6CCC(C(=O)OCCCP(=O)(O)O)CC6)CSc6ccccc6)c(S(=O)(=O)C(F)(F)F)c5)cc4)CC3)c2)c(-c2ccc(Cl)cc2)n1C(C)C , what is its reported viability, T/C? 95.1

For C#Cc1c(F)ccc2cc(O)cc(-c3ncc4c(N5CC6CCC(C5)N6)nc(OCC56CCCN5CC(F)C6)nc4c3F)c12 (stereo unspecified) + CNC(C)C(=O)NC1CN(S(=O)(=O)c2cccc(S(=O)(=O)N3CCC4CCC(C(=O)NC(c5ccccc5)c5ccccc5)N4C(=O)C(NC(=O)C(C)NC)C3)c2)CCC2CCC(C(=O)NC(c3ccccc3)c3ccccc3)N2C1=O , what is its reported viability, T/C? 102

For C=C(F)C(=O)N1CCN(c2nc(OCC3CCCN3C)nc3c2CCN(c2cccc4cccc(Cl)c24)C3)CC1CC#N (stereo unspecified) + Cc1c(S(C)(=O)=O)c(-c2cc(F)cc(N3CCN(c4ccc(NS(=O)(=O)c5ccc(NC(CCN6CCC(C(=O)OCCCP(=O)(O)O)CC6)CSc6ccccc6)c(S(=O)(=O)C(F)(F)F)c5)cc4)CC3)c2)c(-c2ccc(Cl)cc2)n1C(C)C , what is its reported viability, T/C? 92.4
